Readings of MIC for the listed compounds
Tested on: Acinetobacter baumanii ATCC 19606
assay_comment: MIC, Acinetobacter baumanii ATCC 19606
Assay type: cell-based
setup_conditions: Acinetobacter baumannii, ATCC19606, read-out: MIC against Acinetobacter baumanii ATCC 19606
Procedure: Minimum inhibitory concentrations (MICs) were determined in triplicate according to Clinical and Laboratory Standards Institute (CLSI) guidelines using one or more strains of S. aureus or selected Gram-negative bacteria. […]
Kindly answer with a numeric value in µg/mL, unit omitted.

>  <smiles_notation>
COc1ccc2ncc(F)c(CCN3CCC(C(=O)Cc4ccc(C)cc4)CC3)c2n1

>  <tested_system>
Acinetobacter baumanii ATCC 19606

>  <measurement_type>
MIC

>  <measurement_units>
µg/mL

>  <result_value>
32

$$$$
>  <smiles_notation>
COc1ccc2ncc(F)c(CCN3CCC(/C=C/c4ccc5c(c4)OCCO5)CC3)c2n1

>  <tested_system>
Acinetobacter baumanii ATCC 19606

>  <measurement_type>
MIC

>  <measurement_units>
µg/mL

>  <result_value>
8

$$$$
>  <smiles_notation>
COc1ccc2ncc(F)c(CCN3CCC(/C=C/c4ccc5c(c4)NC(=O)CO5)CC3)c2n1

>  <tested_system>
Acinetobacter baumanii ATCC 19606

>  <measurement_type>
MIC

>  <measurement_units>
µg/mL

>  <result_value>
8

$$$$

Q) Entry COc1ccc2ncc(F)c(CCN3CCC(/C=C\c4ccc5c(c4)OCCO5)CC3)c2n1 has what MIC?
A) 64
